Attribution: ChEMBL document CHEMBL1155760

Provide the recorded Aggregation % at 100 µg/mL for the entries that follow.
assay-name: Antiplatelet activity against washed rabbit platelet assessed as collagen-induced platelet aggregation at 100 ug/mL pre-incubated 3 mins before collagen challenge by turbidimetric method
stated-conditions: Oryctolagus cuniculus
Give bare numbers, in %.

Recorded Aggregation % at 100 µg/mL, per entry:
chemical-string | u | Aggregation % at 100 µg/mL
COc1ccc2c(OC)c3c(nc2c1OC)O[C@@H](C(C)(C)O)[C@H]3O | % | 79
COCc1c(OC)c2ccc(OC)cc2[nH]c1=O | % | 82.7
CC(C)=CCc1c(O)ccc2ccc(=O)oc12 | % | 13.7
COc1c2ccc(O)cc2nc2occc12 | % | 11.4
COc1cc(O)c2c(=O)c(OC)c(-c3ccc(OC)c(O)c3)oc2c1 | % | 43.1
COc1cc(C(=O)O)cc(OC)c1O | % | 85.1
COc1cc2nc3occc3c(OC)c2cc1OC | % | 15.2
COc1ccc2c(OC)c3c(nc2c1OC)O[C@H](C(C)(C)O)C3 | % | 84.4

Kindly indicate its recorded Aggregation % at 100 µg/mL. Item: `COc1ccc2ccc(=O)oc2c1CC=C(C)C`
7.4

---

assay-name: Antiplatelet activity against washed rabbit platelet assessed as platelet activating factor-induced platelet aggregation at 100 ug/mL pre-incubated 3 mins before PAF challenge by turbidimetric method
stated-conditions: Oryctolagus cuniculus
Provide the recorded Aggregation % at 100 µg/mL for the entries that follow.
Please make sure the unit comes right after the number.

Recorded Aggregation % at 100 µg/mL, per entry:
chemical-string | Aggregation % at 100 µg/mL
COc1cc2nc3occc3c(OC)c2cc1OC | 70.7%
COc1c2ccc(O)cc2nc2occc12 | 78.6%
COc1ccc2c(OC)c3c(nc2c1OC)O[C@@H](C(C)(C)O)[C@H]3O | 89.4%

For each entry beneath this line, provide reported Aggregation % at 100 µg/mL.
1. COCc1c(OC)c2ccc(OC)cc2[nH]c1=O
2. COc1cc(O)c2c(=O)c(OC)c(-c3ccc(OC)c(O)c3)oc2c1

88.8%
88.3%

---

Provide the recorded Aggregation % at 50 µg/mL for the entries that follow.
assay-name: Antiplatelet activity against washed rabbit platelet assessed as arachidonic acid-induced platelet aggregation at 50 ug/mL preincubated 3 mins before arachidonic acid challenge by turbidimetric method
stated-conditions: Oryctolagus cuniculus
One number for each entry, in %.

Recorded Aggregation % at 50 µg/mL, per entry:
chemical-string | endpoint | observed-value
COc1cc2nc3occc3c(OC)c2cc1OC | Aggregation % at 50 µg/mL | 0
CC(=O)Oc1ccccc1C(=O)O | Aggregation % at 50 µg/mL | 7.8
COc1ccc2ccc(=O)oc2c1CC=C(C)C | Aggregation % at 50 µg/mL | 52.6
COc1cc(O)c2c(=O)c(OC)c(-c3ccc(OC)c(O)c3)oc2c1 | Aggregation % at 50 µg/mL | 38

Then there is this molecule:
Kindly indicate its recorded Aggregation % at 50 µg/mL. Item: `CC(C)=CCc1c(O)ccc2ccc(=O)oc12`
84.8

---

Provide the recorded Aggregation % at 100 µg/mL for the entries that follow.
assay-name: Antiplatelet activity against washed rabbit platelet assessed as platelet activating factor-induced platelet aggregation at 100 ug/mL pre-incubated 3 mins before PAF challenge by turbidimetric method
stated-conditions: Oryctolagus cuniculus
Give bare numbers, in %.

Recorded Aggregation % at 100 µg/mL, per entry:
compound | u | observed-value
COc1ccc2ccc(=O)oc2c1CC=C(C)C [OSTHOLE] | % | 0
COc1cc(C(=O)O)cc(OC)c1O [SYRINGIC ACID] | % | 89.6
CC(C)=CCc1c(O)ccc2ccc(=O)oc12 [OSTHENOL] | % | 89.8

Kindly indicate its recorded Aggregation % at 100 µg/mL. Item: `COc1ccc2c(OC)c3c(nc2c1OC)O[C@H](C(C)(C)O)C3`
89.8
